target: EBP (Homo sapiens, UniProt Q15125)
Construct: HEK293T cells were utilized as the source of EBP enzyme; endogenous in cells
Sequence (Q15125 whole entry): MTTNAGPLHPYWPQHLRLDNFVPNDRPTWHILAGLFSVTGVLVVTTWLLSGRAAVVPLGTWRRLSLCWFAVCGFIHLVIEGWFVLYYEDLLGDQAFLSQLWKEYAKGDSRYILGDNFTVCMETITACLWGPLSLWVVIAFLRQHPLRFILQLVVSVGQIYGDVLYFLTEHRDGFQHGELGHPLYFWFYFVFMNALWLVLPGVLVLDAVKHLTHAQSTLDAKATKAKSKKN
test-details: EBP Functional Assay (EBP immunoaffinity LC-MS assay)
condition-parameters: EBP enzyme from HEK293T cells; 30 min with inhibitor, then zymosterol-d5 at 37° C. for 4 h; percent conversion by LC-APCI MRM MS
readout-label: IC50

Below, 6 molecules whose answers are already recorded.
INSERT INTO assay_data (molecule, readout_label, meas_value) VALUES
  ('CC1CCN([C@@H]2C[C@@H]3CN(S(=O)(=O)c4ccc(OC(F)F)cc4)C[C@@H]3C2)CC1', 'IC50', '100 to 500 nM'),
  ('Cc1ccc(S(=O)(=O)N2C[C@H]3C[C@H](NCC4CCOCC4)C[C@H]3C2)c(C)c1', 'IC50', '< 100 nM'),
  ('Cc1nc(C(F)(F)F)ccc1S(=O)(=O)N1C[C@H]2C[C@H](NC3CCOCC3)C[C@H]2C1', 'IC50', '< 100 nM'),
  ('Cc1nc(C(F)(F)F)ccc1S(=O)(=O)N1C[C@H]2CN(CC3CCOCC3)C[C@@H]2C1 (racemic)', 'IC50', '< 100 nM'),
  ('Cc1nc(C(F)(F)F)ccc1S(=O)(=O)N1C[C@H]2C[C@H](NCC3CCOCC3)C[C@H]2C1', 'IC50', '< 100 nM'),
  ('Cc1cc(S(=O)(=O)N2C[C@H]3CN(C4CCOCC4)C[C@H]3C2)n(C)n1 [Example 31]', 'IC50', '100 to 500 nM');

Need IC50 of O=S(=O)(c1ccc(OC(F)F)cc1)N1C[C@H]2C[C@H](NC3CCOC3)C[C@H]2C1 (stereo partly shown) , thanks.
100 to 500 nM

* * *

target: EBP (Homo sapiens)
Construct: HEK293T cells were utilized as the source of EBP enzyme; endogenous in cells
test-details: EBP Functional Assay (EBP immunoaffinity LC-MS assay)
condition-parameters: EBP enzyme from HEK293T cells; 30 min with inhibitor, then zymosterol-d5 at 37° C. for 4 h; percent conversion by LC-APCI MRM MS
Description: The EBP immunoaffinity (IA) LC-MS assay measures the potency of small molecule inhibitors of EBP by quantifying their concentration-dependent changes in the enzyme's substrate and product using liquid chromatography atmospheric pressure chemical ionization multiple reaction monitoring mass spectrometry (LC-APCI MRM MS). HEK293T cells were utilized as the source of EBP enzyme. The enzyme was incubated with the small molecule inhibitors at variable concentrations for 30 min. […]
pIC50: −log10 of the molar value.
readout-label: pIC50

INSERT INTO measurements (molecule, target, meas_value) VALUES
  ('Cc1cc(C)c(S(=O)(=O)N2CC3CN(C4CCOCC4)CC3C2)c(C)c1 (centres unmarked)', 'EBP (Homo sapiens)', '> 7.00'),
  ('O=S(=O)(c1ccc(OC(F)F)cc1)N1C[C@H]2C[C@H](NC3CCOCC3)C[C@H]2C1', 'EBP (Homo sapiens)', '> 7.00'),
  ('CN(CC1CCOCC1)[C@H]1C[C@@H]2CN(S(=O)(=O)c3ccc(OC(F)F)cc3)C[C@@H]2C1', 'EBP (Homo sapiens)', '6.30 to 7.00'),
  ('Cc1ccc(S(=O)(=O)N2C[C@H]3C[C@H](N4CCC(C)CC4)C[C@H]3C2)c(C)c1', 'EBP (Homo sapiens)', '> 7.00'),
  ('CC1CCN([C@H]2C[C@@H]3CN(S(=O)(=O)c4ccc(OC(F)F)cc4)C[C@@H]3C2)CC1', 'EBP (Homo sapiens)', '6.30 to 7.00'),
  ('Cc1ccc(S(=O)(=O)N2C[C@H]3C[C@@H](NCC4CCOCC4)C[C@H]3C2)c(C)c1', 'EBP (Homo sapiens)', '> 7.00'),
  ('Cc1nc(C(F)(F)F)nc(C)c1S(=O)(=O)N1C[C@H]2CN(C3CC4(COC4)C3)C[C@@H]2C1', 'EBP (Homo sapiens)', '> 7.00'),
  ('COc1ccc(S(=O)(=O)N2C[C@H]3CN(C4CCOCC4)C[C@H]3C2)c(C)n1', 'EBP (Homo sapiens)', '> 7.00');

Record pIC50 for all entries; do not skip any.
1. Cc1nc(C(F)(F)F)ccc1S(=O)(=O)N1C[C@H]2CN(C3CCOCC3)C[C@H]2C1
2. Cc1nc(C(F)(F)F)ccc1S(=O)(=O)N1C[C@H]2CN(CC34CCOC(C)(C3)C4)C[C@@H]2C1 (racemic)
3. O=S(=O)(c1ccc(OC(F)F)cc1)N1C[C@H]2C[C@@H](NCC3CCOCC3)C[C@H]2C1
4. Cc1nc(C(F)(F)F)ncc1S(=O)(=O)N1C[C@H]2CN(C3CCOCC3)C[C@@H]2C1 (racemic)
5. Cc1nc(C(F)(F)F)ccc1S(=O)(=O)N1C[C@H]2C[C@H](N(C)CC3CCOCC3)C[C@H]2C1
6. Cn1nc(C2CC2)cc1S(=O)(=O)N1C[C@H]2C[C@H](NC3CC4(COC4)C3)C[C@H]2C1

1. > 7.00
2. 6.30 to 7.00
3. 6.30 to 7.00
4. 6.30 to 7.00
5. > 7.00
6. 6.30 to 7.00
